biological target: mGAT1 (Mus musculus); construct: expressed in transfected cells; host or cells: HEK-293; assay: [3H]GABA uptake assay in HEK-293 cells stably expressing mGAT1; format: cell-based; details: [3H]GABA uptake; read-out: pIC50 ± SEM mGAT1 (converted)
OUTCOME_MEASURE: IC50 (µM)

Below: 4 compounds and their reported IC50.
{"columns": ["COMPOUND", "READOUT_UNIT", "MEASURED_VALUE"],
 "data": [
  ["CCC(C(=O)NCc1ccccc1)N1CCC(=C(c2sccc2C)c2sccc2C)CC1 (stereo not shown) [Compound 64a]", "µM", 7.08],
  ["CC(O)CC(C(=O)NCc1ccccc1)N(C)CCON=C(c1ccccc1)c1ccccc1 (stereo not shown) [2RS,4SR-45]", "µM", 57.5],
  ["Cc1ccsc1C(=C1CCN([C@H](C[C@H](C)O)C(=O)NCc2ccccc2)CC1)c1sccc1C (relative stereo) [2RS,4SR-37a]", "µM", 29.5],
  ["Cc1ccsc1C(=C1CCN([C@H](C[C@@H](C)O)C(=O)NCc2ccccc2)CC1)c1sccc1C (relative stereo) [2RS,4RS-37a]", "µM", 26.3]
]}

I: CC(O)CC(C(=O)NCc1ccc(F)cc1)N1CCC(=C2c3ccccc3CCc3ccccc32)CC1 (stereo not shown) [2RS,4RS-43b]
II: CN(CCC=C1c2ccccc2CCc2ccccc21)C(CO)C(=O)NCc1ccccc1 (stereo not shown) [Compound 56a]
Exam item: Task for the reader: decide whether I or II has the larger IC50. Please respond with the label that marks your chosen entry.
Marked response: I

P: CN(CCC=C1c2ccccc2C=Cc2ccccc21)C(CO)C(=O)NCc1ccc(F)cc1 (stereo not shown) [Compound 55d]
Q: CC(=O)NCCC(C(=O)NCc1ccccc1Cl)N(C)CCON=C(c1ccccc1)c1ccccc1 (stereo not shown) [Compound 51a]
R: CC(C(=O)NCc1ccccc1)N(C)CCON=C(c1ccccc1)c1ccccc1 (stereo not shown)
Exam item: Sort (3 compounds) by IC50: min first. # respond with the labels, arranged in the requested order
Marked response: Q, P, R

A: CN(CCC=C1c2ccccc2CCc2ccccc21)C(CO)C(=O)NCc1ccc(F)cc1 (stereo not shown) [Compound 56d]
B: CN(CCON=C(c1ccccc1)c1ccccc1)C(CO)C(=O)NCc1ccccc1Cl (stereo not shown) [Compound 59b]
C: CN(CCC=C1c2ccccc2C=Cc2ccccc21)C(CO)C(=O)NCc1ccc(Cl)cc1 (stereo not shown) [Compound 55c]
Exam item: Sort (3 compounds) by IC50: min first. # respond with the labels, arranged in the requested order
Marked response: A, C, B
(A: 17.8 µM, C: 28.8 µM, B: 44.7 µM)

====

target: mGAT1 (Mus musculus, UniProt P31648); construct: expressed in transfected cells; host or cells: HEK-293; assay: [3H]GABA uptake assay in HEK-293 cells stably expressing mGAT1; assay type: cell-based; settings: in the presence of 100 μM inhibitor
A collection of molecules and their measured remaining [3H]GABA uptake mGAT1

Below: 2 molecules and their reported remaining [3H]GABA uptake mGAT1.
{"columns": ["MOLECULE", "remaining [3H]GABA uptake mGAT1"],
 "data": [
  ["Cc1ccsc1C(=C1CCN(C(CC(C)O)C(=O)NCc2ccccc2Cl)CC1)c1sccc1C (stereo not shown) [2RS,4RS-37b]", "100 μM: 52%"],
  ["C[C@@H](O)C[C@H](C(=O)NCc1ccc(Cl)cc1)N(C)CCC=C1c2ccccc2CCc2ccccc21 (relative stereo) [2RS,4RS-39b]", "100 μM: 56%"]
]}

Entry under test: Cc1ccc(CNC(=O)[C@@H](C[C@@H](C)O)N(C)CCC=C2c3ccccc3CCc3ccccc32)cc1 (relative stereo) [Compound 2RS,4RS-39c] . Its remaining [3H]GABA uptake mGAT1 was 100 μM: 52%

Entry under test: CN(CCC=C1c2ccccc2CCc2ccccc21)C(CO)C(=O)NCc1ccccc1Cl (stereo not shown) [Compound 56b] . Its remaining [3H]GABA uptake mGAT1 was 100 μM: 50%

====

molecular target: mGAT2 (Mus musculus, UniProt P31651); construct: expressed in transfected cells; host or cells: HEK-293; experiment: [3H]GABA uptake assay in HEK-293 cells stably expressing mGAT2; format: cell-based; conditions: [3H]GABA uptake; read-out: pIC50 ± SEM mGAT2 (converted)
OUTCOME_MEASURE: IC50 (µM)

{"columns": ["MOLECULE", "OUTCOME_MEASURE", "MEASURED_VALUE"],
 "data": [
  ["CC(O)CC(C(=O)NCc1ccccc1)N1CCC(=C2c3ccccc3CCc3ccccc32)CC1 (centres unmarked) [2RS,4SR-43a]", "IC50", 58.9],
  ["CN(CCC=C1c2ccccc2C=Cc2ccccc21)C(CO)C(=O)NCc1ccccc1 (centres unmarked) [Compound 55a]", "IC50", 26.3],
  ["CN(CCON=C(c1ccccc1)c1ccccc1)C(CCN)C(=O)NCc1ccc(Cl)c(Cl)c1 (centres unmarked) [Compound 50b]", "IC50", 4.9],
  ["CN(CCON=C(c1ccccc1)c1ccccc1)C(CO)C(=O)NCc1ccccc1 (centres unmarked) [Compound 59a]", "IC50", 22.9],
  ["Cc1ccsc1C(=CCCN(C)C(C)C(=O)NCc1ccccc1)c1sccc1C (centres unmarked)", "IC50", 13.2]
]}

P: CC(=O)NCCC(C(=O)NCc1ccc(Cl)c(Cl)c1)N(C)CCON=C(c1ccccc1)c1ccccc1 (centres unmarked) [Compound 51b]
Q: Cc1ccc(CNC(=O)[C@@H](C[C@@H](C)O)N(C)CCC=C2c3ccccc3CCc3ccccc32)cc1 (relative stereo) [Compound 2RS,4RS-39c]
Exam item: Task for the reader: decide whether P or Q has the larger IC50. Please respond with the label that marks your chosen entry.
Marked response: Q
(Q: 20.4 µM, P: 12 µM)

====

Target: mGAT2 (Mus musculus, UniProt P31651)
Construct: expressed in transfected cells; host or cells: HEK-293
Sequence (P31651 1-614): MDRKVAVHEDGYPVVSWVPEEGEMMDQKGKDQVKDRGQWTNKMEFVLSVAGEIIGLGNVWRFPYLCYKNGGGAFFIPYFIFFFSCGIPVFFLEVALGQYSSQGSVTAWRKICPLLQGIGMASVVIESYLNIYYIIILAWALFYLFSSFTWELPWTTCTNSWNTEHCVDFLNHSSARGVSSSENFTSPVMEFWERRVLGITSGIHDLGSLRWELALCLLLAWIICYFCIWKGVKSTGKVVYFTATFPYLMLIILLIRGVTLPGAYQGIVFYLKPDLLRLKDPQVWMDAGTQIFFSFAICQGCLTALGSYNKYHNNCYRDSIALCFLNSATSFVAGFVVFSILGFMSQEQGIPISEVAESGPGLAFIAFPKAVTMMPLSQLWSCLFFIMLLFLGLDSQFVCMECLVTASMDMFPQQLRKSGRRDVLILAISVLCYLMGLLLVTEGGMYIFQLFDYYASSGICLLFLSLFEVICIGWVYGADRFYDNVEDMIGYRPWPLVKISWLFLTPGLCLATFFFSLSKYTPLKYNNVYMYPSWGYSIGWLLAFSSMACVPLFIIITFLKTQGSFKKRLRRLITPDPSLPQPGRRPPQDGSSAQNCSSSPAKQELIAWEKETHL
Assay: [3H]GABA uptake assay in HEK-293 cells stably expressing mGAT2
Format: cell-based
Settings: [3H]GABA uptake; read-out: pIC50 ± SEM mGAT2 (converted)
OUTCOME_MEASURE: IC50 (µM)

Below: 4 molecules and their reported IC50.
{"columns": ["MOLECULE", "ASSAY_SYSTEM", "IC50 (µM)"],
 "data": [
  ["CN(CCC=C1c2ccccc2C=Cc2ccccc21)C(CO)C(=O)NCc1ccc(Cl)cc1 (centres unmarked) [Compound 55c]", "mGAT2 (Mus musculus, UniProt P31651)", 60.3],
  ["CN(CCON=C(c1ccccc1)c1ccccc1)C(CO)C(=O)NCc1ccc(F)cc1 (centres unmarked) [Compound 59c]", "mGAT2 (Mus musculus, UniProt P31651)", 17],
  ["CCC(C(=O)NCc1ccccc1)N(C)CCC=C(c1sccc1C)c1sccc1C (centres unmarked)", "mGAT2 (Mus musculus, UniProt P31651)", 39.8],
  ["CC(C(=O)NCc1ccccc1)N(C)CCON=C(c1ccccc1)c1ccccc1 (centres unmarked)", "mGAT2 (Mus musculus, UniProt P31651)", 26.3]
]}

A: CN(CCC=C1c2ccccc2CCc2ccccc21)C(CO)C(=O)NCc1ccccc1 (centres unmarked) [Compound 56a]
B: CC(O)CC(C(=O)NCc1ccccc1)N(C)CCON=C(c1ccccc1)c1ccccc1 (centres unmarked) [2RS,4RS-45]
C: Cc1ccsc1C(=C1CCN([C@H](C[C@@H](C)O)C(=O)NCc2ccc(F)cc2)CC1)c1sccc1C (relative stereo) [2RS,4RS-37c]
D: CN(CCON=C(c1ccccc1)c1ccccc1)C(CCN)C(=O)NCc1ccccc1Cl (centres unmarked) [Compound 50a]
Exam item: Please list these molecules in decreasing order of IC50. # respond with the labels, arranged in the requested order
Marked response: B, A, C, D
(B: 45.7 µM, A: 27.5 µM, C: 15.8 µM, D: 3.72 µM)
